conditions: pH 2.7
Marks after values point to notes of the source that are not given here.
Catalogue of log p values

>  <compound>
Nc1cc(-c2cn(/C=C/F)nc2-c2ccc(Cl)s2)ccn1 [Example 301]

>  <log p>
1.59^[b]

$$$$

Give log p for FC(F)Cn1cc(-c2ccncc2)c(-c2ccc(Cl)s2)n1 [Example 363]
1.61^[b]

* * *

system: Pyrenophora teres; assay: In vivo test on Pyrenophora teres (barley net blotch); settings: dose of 500 ppm; barley plants; grading 12 days after contamination
experimental readout: protection (%)
Numeric answer only, unit % assumed.

Below, 3 compounds whose answers are already recorded.
>  <compound>
CC(=O)Nc1cc(-c2cn(/C=C/F)nc2-c2ccc(Cl)s2)ccn1

>  <number>
90

$$$$
>  <compound>
CCC(C)n1cc(-c2ccnc(NC3COC3)n2)c(-c2ccc(Cl)s2)n1 (stereo not shown)

>  <number>
100

$$$$
>  <compound>
CC(C)Cn1cc(-c2ccnc(NC(=O)C(C)C)c2)c(-c2ccc(Cl)s2)n1

>  <number>
90

$$$$

Give protection for CCC(C)n1cc(-c2ccnc(NC(=O)N(C)C)c2)c(-c2ccc(Cl)s2)n1 (stereo not shown)
95

Give protection for CCC(C)n1cc(-c2ccnc(NC(=O)Cc3ccccc3)c2)c(-c2ccc(Cl)s2)n1 (stereo not shown)
95

Give protection for CCC(C)n1nc(-c2ccc(Cl)s2)c(-c2ccncc2)c1F (stereo not shown)
70

Give protection for CC(C)CC(C)n1cc(-c2ccncc2)c(-c2ccc(Cl)s2)n1 (stereo not shown)
94

Give protection for C#CCNc1nccc(-c2cn(C(C)CC)nc2-c2ccc(Cl)s2)n1 (stereo not shown)
78

Give protection for `Cn1cc(-c2ccnc(NC(=O)c3ccsc3)c2)c(-c2ccc(Cl)s2)n1`
70

Give protection for CCC(C)n1cc(-c2ccnc(NCC3CC3)n2)c(-c2ccc(Cl)s2)n1 (stereo not shown)
70

Give protection for `CCC(=O)Nc1cc(-c2cn(C(C)C)nc2-c2cccs2)ccn1`
90

Give protection for `Cn1cc(-c2ccncc2)c(-c2ccc(Cl)s2)n1`
70

Give protection for `FC(F)Cn1cc(-c2ccncc2)c(-c2ccc(Cl)s2)n1`
90

Give protection for CCC(C)n1cc(-c2ccncc2)c(-c2cc(Cl)cs2)n1 (stereo not shown)
95

Give protection for `CC(C)Cn1cc(-c2ccncc2)c(-c2cccs2)n1`
90

* * *

details: pH 2.7
experimental readout: logP value of the minor isomer

Give logP value of the minor isomer for `CCCc1c(-c2ccncc2)c(-c2sccc2C)nn1C`
1.46^[b])

* * *

Catalogue of log p values
details: pH 2.7
Marks after values point to notes of the source that are not given here.

Below, 8 compounds whose answers are already recorded.
>  <compound>
FC(F)(F)Cn1cc(-c2ccncc2)c(-c2ccc(Cl)s2)n1 [Example 54]

>  <log p>
1.88^[b]

$$$$
>  <compound>
CCOC(=O)Cn1cc(-c2ccncc2)c(-c2ccc(Cl)s2)n1 [Example 63]

>  <log p>
1.67^[b]

$$$$
>  <compound>
CC(C)Nc1nccc(-c2cn(C)nc2-c2ccc(Cl)s2)n1 [Example 139]

>  <log p>
2.07^[b]

$$$$
>  <compound>
Cc1c(-c2ccncc2)c(-c2ccc(Cl)s2)nn1C [Example 147]

>  <log p>
1.29^[b]

$$$$
>  <compound>
CC(=O)Nc1cc(-c2cn(C)nc2-c2ccc(NC(C)=O)s2)ccn1 [Example 216]

>  <log p>
0.76^[b]

$$$$
>  <compound>
COCn1cc(-c2ccnc(NC(C)C)n2)c(-c2ccc(Cl)s2)n1 [Example 115]

>  <log p>
2.39^[b]

$$$$
>  <compound>
CCC(C)C(=O)Nc1cc(-c2cn(CC)nc2-c2ccc(Cl)s2)ccn1 (stereo not drawn) [Example 252]

>  <log p>
3.13^[b]

$$$$
>  <compound>
CC(C)CC(C)n1ncc(-c2ccncn2)c1-c1ccc(Cl)s1 (stereo not drawn) [Example 28]

>  <log p>
4.29^[b]

$$$$

Moving on to the next compound.
Give log p for COCCn1cc(-c2ccncc2)c(-c2ccc(Cl)s2)n1 [Example 49]
1.42^[b]

* * *

assay: logP by HPLC at pH 2.3 (0.1% phosphoric acid / acetonitrile); assay type: physicochemical; conditions: method [a]: pH 2.3 with 0.1% phosphoric acid and acetonitrile as eluent
experimental readout: log p

Below, 5 compounds whose answers are already recorded.
>  <sample smiles>
CC(C)Cn1cc(-c2ccnc(NC(=O)c3cccs3)c2)c(-c2ccc(Cl)s2)n1

>  <log p>
4.62^[a]

$$$$
>  <sample smiles>
CC(C)Cn1cc(-c2ccnc(NS(C)(=O)=O)c2)c(-c2ccc(Cl)s2)n1

>  <log p>
3.04^[a]

$$$$
>  <sample smiles>
CCNC(=O)Nc1cc(-c2cn(CC(C)C)nc2-c2ccc(Cl)s2)ccn1

>  <log p>
3.18^[a]

$$$$
>  <sample smiles>
CC(=O)Nc1cc(-c2cn(CC(C)C)nc2-c2ccc(Cl)s2)ccn1

>  <log p>
2.96^[a]

$$$$
>  <sample smiles>
CCn1cc(-c2ccnc(N=C(c3ccccc3)c3ccccc3)c2)c(-c2ccc(Cl)s2)n1

>  <log p>
3.99^[a]

$$$$

Give log p for `CC(C)Cn1cc(-c2ccnc(NC(=O)OC(C)C)c2)c(-c2ccc(Cl)s2)n1`
5.15^[a]

Give log p for `COCC(=O)Nc1cc(-c2cn(CC(C)C)nc2-c2ccc(Cl)s2)ccn1`
3.78^[a]

* * *

Catalogue of log p values
conditions: pH 2.7
Marks after values point to notes of the source that are not given here.

Below, 2 compounds whose answers are already recorded.
>  <compound>
ClC(Cl)=CCn1cc(-c2ccncc2)c(-c2cc3ccsc3s2)n1 [Example 335]

>  <log p>
1.67^[b]

$$$$
>  <compound>
ClC(Cl)=CCn1cc(-c2ccncc2)c(-c2ccc(Cl)s2)n1 [Example 50]

>  <log p>
2.3^[b]

$$$$

Give log p for CCC(C)n1ncc(-c2ccncc2)c1-c1ccc(Cl)s1 (stereo not drawn) [Example 9]
1.91^[b]

Give log p for CCC(C)n1cc(-c2ccnc(NC(=O)C3CCC3)c2)c(-c2ccc(Cl)s2)n1 (stereo not drawn) [Example 240]
3.81^[b]

Give log p for CCn1cc(-c2ccnc(Cl)c2)c(-c2ccc(Cl)s2)n1 [Example 316]
3.89^[b]

Give log p for CCn1cc(-c2ccnc(NC(=O)c3cccs3)c2)c(-c2ccc(Cl)s2)n1 [Example 267]
3.48^[b]

Give log p for C[C@H](O)C(=O)Nc1cc(-c2cn(C)nc2-c2ccc(Cl)s2)ccn1 [Example 207]
2.11^[b]

Give log p for CCC(C)n1cc(-c2ccnc(NC(=O)CC(C)C)c2)c(-c2ccc(Cl)s2)n1 (stereo not drawn) [Example 235]
4.08^[b]

Give log p for CCOC(=O)Nc1cc(-c2cn(C)nc2-c2ccc(Cl)s2)ccn1 [Example 271]
2.56^[b]

* * *

test system: Alternaria solani; experiment: Alternaria test (tomato) / protective; format: in vivo; details: 500 ppm active compound, protective spray, evaluated 7 days after inoculation
experimental readout: efficacy (%)
Numeric answer only, unit % assumed.

Below, 5 compounds whose answers are already recorded.
>  <compound>
Cn1cc(-c2ccnc(NC(=O)c3ccsc3)c2)c(-c2ccc(Cl)s2)n1 [Example 282]

>  <efficacy (%)>
80

$$$$
>  <compound>
CCC(C)n1cc(-c2ccncc2)c(-c2cc(Cl)cs2)n1 (stereo not drawn) [Example 167]

>  <efficacy (%)>
90

$$$$
>  <compound>
COCC(=O)Nc1cc(-c2cn(C)nc2-c2ccc(Cl)s2)ccn1 [Example 276]

>  <efficacy (%)>
90

$$$$
>  <compound>
CCn1cc(-c2ccnc(NC(=O)C(C)C)c2)c(-c2ccc(Cl)s2)n1 [Example 285]

>  <efficacy (%)>
95

$$$$
>  <compound>
CCC(C)n1nc(-c2ccc(Cl)s2)c(-c2ccncc2)c1Cl (stereo not drawn) [Example 201]

>  <efficacy (%)>
78

$$$$

Moving on to the next compound.
Give efficacy for Cc1cn(-c2cc(-c3cn(CC(C)C)nc3-c3ccc(Cl)s3)ccn2)cn1 [Example 399]
78

* * *

Catalogue of chromatographic logP values
experiment: physchem; conditions: pH 7.8
Number only, please.

Below, 2 compounds whose answers are already recorded.
>  <compound>
CCC(=O)Nc1cc(-c2cn(CC)nc2-c2cccs2)ccn1

>  <number>
2.26

$$$$
>  <compound>
CCn1cc(-c2ccncc2)c(-c2cccs2)n1

>  <number>
2.06

$$$$

Moving on to the next compound.
Give chromatographic logP for CCC(=O)Nc1cc(-c2cn(C(C)CC)nc2-c2cc(Cl)cs2)ccn1 (stereo not drawn)
3.59

* * *

Catalogue of log p values
conditions: pH 2.7
Marks after values point to notes of the source that are not given here.

>  <compound>
CC(C)n1cc(-c2ccncc2)c(-c2ccc(F)s2)n1

>  <log p>
1.53^[b]

$$$$
>  <compound>
CCC(C)C(=O)Nc1cc(-c2cn(C(C)C)nc2-c2ccc(Cl)s2)ccn1 (stereo not drawn)

>  <log p>
3.61^[b]

$$$$
>  <compound>
CCn1cc(-c2ccncc2)c(-c2cc(Cl)cs2)n1

>  <log p>
1.34^[b]

$$$$
>  <compound>
CCC(C)n1ncc(-c2ccncn2)c1-c1ccc(Cl)s1 (stereo not drawn)

>  <log p>
3.34^[b]

$$$$
>  <compound>
C#CCn1cc(-c2ccncc2)c(-c2ccc(Cl)s2)n1

>  <log p>
1.54^[b]

$$$$

Give log p for `Cn1cc(-c2ccnc(NC(=O)c3ccccc3)c2)c(-c2ccc(Cl)s2)n1`
3.09^[b]

Give log p for `CC(C)C(=O)Nc1cc(-c2cn(C(C)C)nc2-c2ccc(Cl)s2)ccn1`
3.21^[b]

Give log p for CC(C)CC(C)n1cc(-c2ccncc2)c(-c2ccc(Cl)s2)n1 (stereo not drawn)
2.7^[b]

Give log p for CCC(C)n1cc(-c2ccnc(NC(=O)Cc3ccccc3)c2)c(-c2ccc(Cl)s2)n1 (stereo not drawn)
4.35^[b]
